experimental-system: recombinant PKC-ι (Homo sapiens)
Construct: purchased Biovision, Mountain View, Calif
Sequence (P41743 whole entry): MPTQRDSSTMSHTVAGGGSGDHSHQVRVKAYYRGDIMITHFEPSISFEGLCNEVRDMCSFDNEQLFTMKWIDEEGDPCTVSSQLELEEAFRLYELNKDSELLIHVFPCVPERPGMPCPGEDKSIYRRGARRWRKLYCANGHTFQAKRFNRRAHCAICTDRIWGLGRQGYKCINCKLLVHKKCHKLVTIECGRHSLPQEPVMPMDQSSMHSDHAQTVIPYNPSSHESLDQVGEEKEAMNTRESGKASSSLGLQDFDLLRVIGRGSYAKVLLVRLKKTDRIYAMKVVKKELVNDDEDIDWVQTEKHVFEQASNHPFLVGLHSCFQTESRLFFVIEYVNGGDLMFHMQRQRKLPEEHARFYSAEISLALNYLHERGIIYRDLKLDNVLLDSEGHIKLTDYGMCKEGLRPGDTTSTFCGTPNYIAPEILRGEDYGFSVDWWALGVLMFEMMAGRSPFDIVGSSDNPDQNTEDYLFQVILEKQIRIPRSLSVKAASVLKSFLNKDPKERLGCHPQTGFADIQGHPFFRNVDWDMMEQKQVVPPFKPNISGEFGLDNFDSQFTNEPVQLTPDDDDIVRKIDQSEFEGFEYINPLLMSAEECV
assay-remarks: recombinant PKC-ι activity assay (PIP3-activated)
Type: biochemical
run-conditions: 10 ng recombinant PKC-ι activated by 10 fM PIP3, in vitro
pIC50: −log10 of the molar value.
endpoint: pIC50

Which pIC50 value belongs to NC(=O)c1ncn([C@@H]2C[C@H](COP(=O)(O)O)[C@@H](O)[C@H]2O)c1N ?
7.00 to 8.00
